Recorded values, source the supplement of paper PMC3334620.

Catalogue of PBM E-score values
SUBJECT OF TEST: Ybr033w (UniProt P38073)
Sequence: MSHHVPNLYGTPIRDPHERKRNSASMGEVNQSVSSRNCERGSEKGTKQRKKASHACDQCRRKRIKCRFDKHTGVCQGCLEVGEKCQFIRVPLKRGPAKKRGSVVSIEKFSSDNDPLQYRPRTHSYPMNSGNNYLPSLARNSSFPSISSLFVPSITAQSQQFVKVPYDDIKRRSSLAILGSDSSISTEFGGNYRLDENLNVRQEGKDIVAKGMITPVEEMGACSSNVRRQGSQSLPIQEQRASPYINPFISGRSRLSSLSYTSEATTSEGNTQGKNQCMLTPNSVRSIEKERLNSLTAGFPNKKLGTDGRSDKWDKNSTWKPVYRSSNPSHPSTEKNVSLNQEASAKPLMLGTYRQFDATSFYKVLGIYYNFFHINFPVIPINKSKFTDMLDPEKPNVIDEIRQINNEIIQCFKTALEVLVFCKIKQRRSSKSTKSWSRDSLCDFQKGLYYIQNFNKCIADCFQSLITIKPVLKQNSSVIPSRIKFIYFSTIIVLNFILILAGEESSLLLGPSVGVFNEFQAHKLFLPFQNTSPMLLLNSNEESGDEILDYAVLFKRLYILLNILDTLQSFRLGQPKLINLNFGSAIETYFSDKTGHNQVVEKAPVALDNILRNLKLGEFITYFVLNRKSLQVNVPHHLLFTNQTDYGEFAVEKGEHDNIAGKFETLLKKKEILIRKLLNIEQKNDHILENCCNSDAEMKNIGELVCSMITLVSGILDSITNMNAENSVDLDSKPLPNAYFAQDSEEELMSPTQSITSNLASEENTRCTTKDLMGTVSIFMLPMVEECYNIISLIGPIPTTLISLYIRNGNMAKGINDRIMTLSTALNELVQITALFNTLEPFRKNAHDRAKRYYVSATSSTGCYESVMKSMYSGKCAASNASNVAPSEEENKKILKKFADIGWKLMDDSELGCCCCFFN
EXPERIMENTAL PROTOCOL: PBM E-score (8-mer binding enrichment) (E-score (-0.5 to 0.5)); higher = stronger / more preferred TF binding
TEST PARAMETERS: protein concentration: 200 nM; construct: GST-full length
The full ranking holds about 33,000 sequences; the median of “E-score (-0.5 to 0.5)” is about -0.012, and the highest 2% start at about 0.29. This excerpt belongs to a sample that is enriched for the highest values.
METRIC: PBM E-score

- INPUT SEQUENCE: "TGGGGAAA"
  TEST RESULT: 0.0688
- INPUT SEQUENCE: "AAATTTAT"
  TEST RESULT: 0.228
- INPUT SEQUENCE: "AACTACTA"
  TEST RESULT: 0.298
- INPUT SEQUENCE: "GGGGGAAA"
  TEST RESULT: -0.124
- INPUT SEQUENCE: "GACGAGTA"
  TEST RESULT: 0.0188
- INPUT SEQUENCE: "AATTTTGT"
  TEST RESULT: 0.215
- INPUT SEQUENCE: "AGGGGAAA"
  TEST RESULT: 0.0237
- INPUT SEQUENCE: "ATGAACAT"
  TEST RESULT: 0.217
- INPUT SEQUENCE: "GGGAACAC"
  TEST RESULT: 0.0998
- INPUT SEQUENCE: "GAAATTCA"
  TEST RESULT: 0.228
- INPUT SEQUENCE: "AGATACAA"
  TEST RESULT: 0.292
- INPUT SEQUENCE: "ATTCCACG"
  TEST RESULT: -0.0625
- INPUT SEQUENCE: "TGGAACCA"
  TEST RESULT: 0.0554
- INPUT SEQUENCE: "GAAATTAA"
  TEST RESULT: 0.294
- INPUT SEQUENCE: "CAGGCGGA"
  TEST RESULT: 0.122
- INPUT SEQUENCE: "CTCTTCGA"
  TEST RESULT: 0.0693
- INPUT SEQUENCE: "CGGGGAAA"
  TEST RESULT: 0.212
- INPUT SEQUENCE: "ATCTACTC"
  TEST RESULT: 0.127
- INPUT SEQUENCE: "ATCTACTG"
  TEST RESULT: 0.143
- INPUT SEQUENCE: "ACGAACAT"
  TEST RESULT: 0.151
- INPUT SEQUENCE: "AATGCATT"
  TEST RESULT: 0.31
- INPUT SEQUENCE: "ATCTAGAC"
  TEST RESULT: 0.107
- INPUT SEQUENCE: "TACGAGTA"
  TEST RESULT: 0.297
- INPUT SEQUENCE: "TGGGAAAA"
  TEST RESULT: 0.316
- INPUT SEQUENCE: "CAATACTA"
  TEST RESULT: 0.143
- INPUT SEQUENCE: "CCCGGTTC"
  TEST RESULT: -0.0468
- INPUT SEQUENCE: "AGGAACAG"
  TEST RESULT: -0.0964
- INPUT SEQUENCE: "CACGAGTA"
  TEST RESULT: 0.0368
- INPUT SEQUENCE: "AGGAACAC"
  TEST RESULT: 0.193
- INPUT SEQUENCE: "GCGAACAA"
  TEST RESULT: 0.183
- INPUT SEQUENCE: "AGGGAAAT"
  TEST RESULT: 0.00233
- INPUT SEQUENCE: "TACTACTA"
  TEST RESULT: 0.335
- INPUT SEQUENCE: "GGGAACAA"
  TEST RESULT: 0.381
- INPUT SEQUENCE: "ATTCCACA"
  TEST RESULT: 0.335
- INPUT SEQUENCE: "AATGCATA"
  TEST RESULT: 0.126
- INPUT SEQUENCE: "AATGCATG"
  TEST RESULT: 0.0293
